# Test system: Jurkat HIV-luciferase clones
# test-description: Jurkat latency reversal assay
# Format: cell-based
# condition-notes: Homo sapiens, 48 h; Jurkat latency reversal assay potency; read-out: Jurkat pEC50 (converted)
experimental-endpoint: EC50

C[C@@H]1CN(CC(=O)N2CC(C)(C)c3[nH]c(=O)c(Cc4ccc(F)cc4)cc32)[C@@H](CN2CCN(CCc3cn(CCC(=O)N4CCN(C[C@H]5CN[C@H](C)CN5CC(=O)N5CC(C)(C)c6[nH]c(=O)c(Cc7ccc(F)cc7)cc65)[C@H](C)C4)nn3)C[C@H]2C)CN1 [Compound 154] ... 63.1 to 316 nM
C[C@@H]1CN(CC(=O)N2CC(C)(C)c3[nH]c(=O)c(Cc4ccc(F)cc4)cc32)[C@@H](CN2CCO[C@H](COc3ccc(C(=O)C(=O)c4ccc(OC[C@@H]5CN(C[C@H]6CN[C@H](C)CN6CC(=O)N6CC(C)(C)c7[nH]c(=O)c(Cc8ccc(F)cc8)cc76)CCO5)cc4)cc3)C2)CN1 [Example 59] ... 0.49 to 12.6 nM
C[C@@H]1CN(CC(=O)N2CC(C)(C)c3ncc(Cc4ccc(C(F)(F)F)cc4)cc32)[C@@H](CN2CCO[C@H](COc3cccc(OC[C@@H]4CN(C[C@H]5CN[C@H](C)CN5CC(=O)N5CC(C)(C)c6ncc(Cc7ccc(C(F)(F)F)cc7)cc65)CCO4)c3)C2)CN1 [Compound 149] ... 63.1 to 316 nM

Consider the additional compound presented here.
Ask: Field: EC50 (Jurkat HIV-luciferase clones). Entry: C[C@@H]1CN(CC(=O)N2CC(C)(C)c3[nH]c(=O)c(Cc4ccc(F)cc4)cc32)[C@@H](CN2CCN(CCc3cn(CCCC(=O)N4CCN(C[C@H]5CN[C@H](C)CN5CC(=O)N5CC(C)(C)c6[nH]c(=O)c(Cc7ccc(F)cc7)cc65)[C@H](C)C4)nn3)C[C@H]2C)CN1 [Compound 157]
Reply: 63.1 to 316 nM
